- tgt: SfurOBP11 (Sogatella furcifera)
- Sequence (V5T6E3 entry or part of it): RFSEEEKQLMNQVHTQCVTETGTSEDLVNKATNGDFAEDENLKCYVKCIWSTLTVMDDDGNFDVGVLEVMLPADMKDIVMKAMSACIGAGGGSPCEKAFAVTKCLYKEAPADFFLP
- experiment description: biochemical
- Type: binding
- condition context: ligand concentration 18, replicate 1
# label = Met if Fluorescence intensity, fluorescence competitive binding assay, OBP11 < 30000 else Not met

# compound, class assignment
records = [
    ("CCCCCCCC=O", "Met"),
]

Q. Strictly below 30000 in Fluorescence intensity, fluorescence competitive binding assay, OBP11? CCCCCCCCCCCCCCCC(=O)OC [MH(methyl hexadecanoate)]
A. Not met

Q. Strictly below 30000 in Fluorescence intensity, fluorescence competitive binding assay, OBP11? CC/C=C\CCO [(Z)-3-hexenol]
A. Met

Q. Strictly below 30000 in Fluorescence intensity, fluorescence competitive binding assay, OBP11? CCC/C=C/CO [(E)-2-hexenol]
A. Met
